The origin of these recorded values is patent US20240109974A1.

Biological target: T1, Human TNFR2-His (Sino 10417-H08H) (human, UniProt P20333 23-257)
T1 construct: Bought protein; also called recombinant human TNFR2 protein; not shown: His tag
T1 sequence (looked up): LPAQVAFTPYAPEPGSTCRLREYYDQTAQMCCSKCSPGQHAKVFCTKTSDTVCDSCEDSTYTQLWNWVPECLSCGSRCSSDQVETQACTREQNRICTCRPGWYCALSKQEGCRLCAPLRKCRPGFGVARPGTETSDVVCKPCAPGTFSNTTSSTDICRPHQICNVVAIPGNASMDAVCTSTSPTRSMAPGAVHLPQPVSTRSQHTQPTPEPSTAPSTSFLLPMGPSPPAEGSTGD
Assay: SPR (Biacore T200), antibody captured on Protein A chip
Assay endpoint: log10 of Kd (log10 of the value in pM)
A difference of one corresponds to tenfold Kd; all values are log10 with Kd in pM.

Return value of log10 of Kd for input 219-Hu5 (antibody, V domains shown, also called VH7 + VL5) VH: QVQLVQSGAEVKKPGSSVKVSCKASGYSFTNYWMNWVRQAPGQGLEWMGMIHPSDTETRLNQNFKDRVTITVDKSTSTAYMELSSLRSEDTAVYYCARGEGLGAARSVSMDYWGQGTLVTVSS VL: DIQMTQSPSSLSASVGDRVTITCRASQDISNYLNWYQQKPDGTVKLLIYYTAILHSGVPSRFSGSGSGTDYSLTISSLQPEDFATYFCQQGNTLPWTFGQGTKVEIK , no commentary.
2.49

Return value of log10 of Kd for input 219-WT (antibody, V domains shown, Human-murine chimeric wild-type molecule) VH: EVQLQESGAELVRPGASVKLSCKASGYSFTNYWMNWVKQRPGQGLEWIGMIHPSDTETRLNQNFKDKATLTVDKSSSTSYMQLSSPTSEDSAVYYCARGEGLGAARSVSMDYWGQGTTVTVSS VL: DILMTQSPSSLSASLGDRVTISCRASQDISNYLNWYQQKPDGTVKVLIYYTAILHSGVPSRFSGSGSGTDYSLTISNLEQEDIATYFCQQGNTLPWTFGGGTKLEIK , no commentary.
2.74

Return value of log10 of Kd for input 219-Hu4 (antibody, V domains shown, also called VH6 + VL5) VH: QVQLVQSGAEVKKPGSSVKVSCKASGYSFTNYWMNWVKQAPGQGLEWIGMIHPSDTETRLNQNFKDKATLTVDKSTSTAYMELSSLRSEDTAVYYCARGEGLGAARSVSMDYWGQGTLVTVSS VL: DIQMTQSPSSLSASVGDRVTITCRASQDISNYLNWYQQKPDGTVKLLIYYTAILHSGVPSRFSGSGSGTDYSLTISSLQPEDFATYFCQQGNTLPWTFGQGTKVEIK , no commentary.
2.50

Return value of log10 of Kd for input 224-Hu5 (antibody, V domains shown, Humanized form of #224; also called VH9 + VL9) VH: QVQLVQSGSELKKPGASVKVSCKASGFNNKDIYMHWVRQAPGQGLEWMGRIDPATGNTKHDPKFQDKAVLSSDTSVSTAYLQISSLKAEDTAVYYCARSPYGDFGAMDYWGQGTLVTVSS VL: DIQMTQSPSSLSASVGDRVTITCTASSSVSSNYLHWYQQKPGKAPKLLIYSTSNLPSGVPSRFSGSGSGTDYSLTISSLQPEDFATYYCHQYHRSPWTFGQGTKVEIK , no commentary.
3.63

Return value of log10 of Kd for input 001-WT (antibody, V domains shown, Human-murine chimeric wild-type molecule; also called human-murine chimeric antibody WT of #001) VH: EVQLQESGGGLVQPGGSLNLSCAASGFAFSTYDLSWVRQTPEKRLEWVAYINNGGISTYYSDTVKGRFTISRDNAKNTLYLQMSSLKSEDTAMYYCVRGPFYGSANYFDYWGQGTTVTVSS VL: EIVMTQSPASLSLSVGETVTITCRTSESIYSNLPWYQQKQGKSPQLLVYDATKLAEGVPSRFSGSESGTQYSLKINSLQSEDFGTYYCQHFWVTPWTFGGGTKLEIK , no commentary.
2.37
